Subject of test: HLA-A*02:01 (Homo sapiens, UniProt P04439, D140Y/D185E/D98H/E176V/E277Q/G131W/G231S/I119V/I121R/I166T/I218V/L300P/L318F/N151K/N90K/P208A/P217A/Q86G/Q94H/R138H/R169H/T345S)
Experimental details: MHC binding assay (UV-ligand exchange, beta2m ELISA)
Assay conditions: binding of HLA-class I restricted peptides to HLA-A*02:01, β2m ELISA
From the text: Candidate peptides for T cell based therapies according to the present invention were further tested for their MHC binding capacity (affinity). The individual peptide-MHC complexes were produced by UV-ligand exchange, where a UV-sensitive peptide is cleaved upon UV-irradiation, and exchanged with the peptide of interest as analyzed. Only peptide candidates that can effectively bind and stabilize the peptide-receptive MHC molecules prevent dissociation of the MHC complexes. […]
Assay endpoint: Peptide Exchange (MHC class I binding score, peptide exchange yield)

Observe how each entry below is paired with its result.
INSERT INTO measurements (substance, measured_result) VALUES
  ('13 (VVDGMPPGV; listed as Homo sapiens) [compound 13]', '“+++” (≥50 = +++)'),
  ('34 (YLPYIFPNI; listed as Homo sapiens) [compound 34]', '“+++” (≥50 = +++)'),
  ('378 (YILGKFFAL; listed as Homo sapiens) [compound 378]', '“+++” (≥50 = +++)'),
  ('188 (VMGDIPAAV; listed as Homo sapiens) [compound 188]', '“++” (≥20% = ++)'),
  ('376 (VLYNQRVEEI; listed as Homo sapiens) [compound 376]', '“+++” (≥50 = +++)'),
  ('92 (ILEPLNPLL; listed as Homo sapiens) [compound 92]', '“+++” (≥50 = +++)');

Give the measured Peptide Exchange (MHC class I binding score, peptide exchange yield) for 337 (YMYEKESEL; listed as Homo sapiens) [compound 337]
“++” (≥20% = ++)

Give the measured Peptide Exchange (MHC class I binding score, peptide exchange yield) for 48 (FLSPQQPPLL; listed as Homo sapiens) [compound 48]
“+++” (≥50 = +++)

---

Subject of test: HLA-A*02:01 (Homo sapiens, UniProt P04439, D140Y/D185E/D98H/E176V/E277Q/G131W/G231S/I119V/I121R/I166T/I218V/L300P/L318F/N151K/N90K/P208A/P217A/Q86G/Q94H/R138H/R169H/T345S)
Experimental details: MHC binding assay (UV-ligand exchange, beta2m ELISA)
Assay conditions: binding of HLA-class I restricted peptides to HLA-A*02:01, β2m ELISA
Assay endpoint: Peptide Exchange (MHC class I binding score, peptide exchange yield)

INSERT INTO measurements (substance, measured_result) VALUES
  ('189 (VMLEMTPEL; listed as Homo sapiens) [compound 189]', '“+++” (≥50 = +++)'),
  ('358 (FLTDYLNDL; listed as Homo sapiens) [compound 358]', '“+++” (≥50 = +++)');

---

Subject of test: HLA-A*02:01 (Homo sapiens, UniProt P04439, D140Y/D185E/D98H/E176V/E277Q/G131W/G231S/I119V/I121R/I166T/I218V/L300P/L318F/N151K/N90K/P208A/P217A/Q86G/Q94H/R138H/R169H/T345S)
Experimental details: MHC binding assay (UV-ligand exchange, beta2m ELISA)
Assay conditions: binding of HLA-class I restricted peptides to HLA-A*02:01, β2m ELISA
Assay endpoint: Peptide Exchange (MHC class I binding score, peptide exchange yield)

INSERT INTO assay_data (substance, measured_result) VALUES
  ('97 (LLFATQITL; listed as Homo sapiens) [compound 97]', '“++” (≥20% = ++)'),
  ('261 (SLVEAQGWLV; listed as Homo sapiens) [compound 261]', '“+++” (≥50 = +++)'),
  ('270 (TVLPVPPLSV; listed as Homo sapiens) [compound 270]', '“+++” (≥50 = +++)'),
  ('244 (ILQALAVHL; listed as Homo sapiens) [compound 244]', '“+++” (≥50 = +++)'),
  ('81 (WLVGQEFEL; listed as Homo sapiens) [compound 81]', '“+++” (≥50 = +++)');

Give the measured Peptide Exchange (MHC class I binding score, peptide exchange yield) for 182 (VLLSVPGPPV; listed as Homo sapiens) [compound 182]
“+++” (≥50 = +++)

Give the measured Peptide Exchange (MHC class I binding score, peptide exchange yield) for 380 (YLDRKLLTL; listed as Homo sapiens) [compound 380]
“+++” (≥50 = +++)

Give the measured Peptide Exchange (MHC class I binding score, peptide exchange yield) for 181 (VLLSIPFVSV; listed as Homo sapiens) [compound 181]
“+++” (≥50 = +++)

FYI, the data here is from patent US10064928B2.
